assayed.target: T1, human EphA7 (Homo sapiens, UniProt Q15375)
T1 construct: a protein of the extracellular region of each human Eph receptor fused with the SEAP protein and the His tag; made in house; host or cells: Expi293F cells (culture supernatant)
T1 sequence (Q15375 28-555 limits assumed): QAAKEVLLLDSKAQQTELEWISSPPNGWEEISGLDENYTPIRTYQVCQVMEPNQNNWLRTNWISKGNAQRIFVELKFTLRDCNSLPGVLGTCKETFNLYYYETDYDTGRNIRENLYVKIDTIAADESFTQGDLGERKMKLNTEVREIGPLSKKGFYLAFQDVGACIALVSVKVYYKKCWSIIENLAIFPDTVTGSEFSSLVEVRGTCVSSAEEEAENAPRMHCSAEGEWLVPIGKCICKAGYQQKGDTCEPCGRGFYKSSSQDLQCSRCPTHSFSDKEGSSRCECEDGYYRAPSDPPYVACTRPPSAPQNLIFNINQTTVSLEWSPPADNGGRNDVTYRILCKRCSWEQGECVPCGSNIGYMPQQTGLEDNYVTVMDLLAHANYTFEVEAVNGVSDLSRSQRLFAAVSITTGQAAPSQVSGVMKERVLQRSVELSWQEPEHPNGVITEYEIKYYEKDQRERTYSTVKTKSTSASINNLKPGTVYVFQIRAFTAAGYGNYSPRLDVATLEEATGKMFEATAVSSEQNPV
experiment.description: Selectivity ELISA of humanized antibodies for human Eph receptor
Format: binding
test.context: coated protein 1 nM
measured.parameter: hEphA7-SEAP-: absorbance at 450 nm, percentage with respect to hEphA4-SEAP-His as 100%

78 (antibody, V domains shown, synthetic humanized antibody heavy chain variable region sequence; synthetic humanized antibody light chain variable region sequence) VH: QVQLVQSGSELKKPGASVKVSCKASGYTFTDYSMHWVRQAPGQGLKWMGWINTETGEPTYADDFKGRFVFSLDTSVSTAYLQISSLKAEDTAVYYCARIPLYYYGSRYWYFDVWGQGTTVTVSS VL: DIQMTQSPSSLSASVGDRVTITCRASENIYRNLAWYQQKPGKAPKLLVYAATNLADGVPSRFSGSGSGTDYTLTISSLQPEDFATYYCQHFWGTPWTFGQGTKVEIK | 5.0%

Next molecule, hEphA7-SEAP-: absorbance at 450 nm, percentage with respect to hEphA4-SEAP-His as 100% to be filled in.
Task: I have this molecule here, 86 (antibody, V domains shown, constant regions without entry; synthetic humanized antibody light chain variable region sequence; synthetic humanized antibody heavy chain variable region sequence) VL: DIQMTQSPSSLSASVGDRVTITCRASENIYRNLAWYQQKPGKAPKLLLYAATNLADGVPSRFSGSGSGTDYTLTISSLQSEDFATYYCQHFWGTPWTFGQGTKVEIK VH: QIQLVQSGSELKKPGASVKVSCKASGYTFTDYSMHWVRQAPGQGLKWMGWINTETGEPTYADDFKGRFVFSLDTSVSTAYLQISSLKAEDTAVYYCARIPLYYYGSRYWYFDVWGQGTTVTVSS , and I need its recorded hEphA7-SEAP-: absorbance at 450 nm, percentage with respect to hEphA4-SEAP-His as 100%.
Output: 5.6%
